- Target: JAK1 (Homo sapiens, UniProt P23458)
- Construct: purchased Carna Biosciences, Inc
- Sequence (P23458 whole entry): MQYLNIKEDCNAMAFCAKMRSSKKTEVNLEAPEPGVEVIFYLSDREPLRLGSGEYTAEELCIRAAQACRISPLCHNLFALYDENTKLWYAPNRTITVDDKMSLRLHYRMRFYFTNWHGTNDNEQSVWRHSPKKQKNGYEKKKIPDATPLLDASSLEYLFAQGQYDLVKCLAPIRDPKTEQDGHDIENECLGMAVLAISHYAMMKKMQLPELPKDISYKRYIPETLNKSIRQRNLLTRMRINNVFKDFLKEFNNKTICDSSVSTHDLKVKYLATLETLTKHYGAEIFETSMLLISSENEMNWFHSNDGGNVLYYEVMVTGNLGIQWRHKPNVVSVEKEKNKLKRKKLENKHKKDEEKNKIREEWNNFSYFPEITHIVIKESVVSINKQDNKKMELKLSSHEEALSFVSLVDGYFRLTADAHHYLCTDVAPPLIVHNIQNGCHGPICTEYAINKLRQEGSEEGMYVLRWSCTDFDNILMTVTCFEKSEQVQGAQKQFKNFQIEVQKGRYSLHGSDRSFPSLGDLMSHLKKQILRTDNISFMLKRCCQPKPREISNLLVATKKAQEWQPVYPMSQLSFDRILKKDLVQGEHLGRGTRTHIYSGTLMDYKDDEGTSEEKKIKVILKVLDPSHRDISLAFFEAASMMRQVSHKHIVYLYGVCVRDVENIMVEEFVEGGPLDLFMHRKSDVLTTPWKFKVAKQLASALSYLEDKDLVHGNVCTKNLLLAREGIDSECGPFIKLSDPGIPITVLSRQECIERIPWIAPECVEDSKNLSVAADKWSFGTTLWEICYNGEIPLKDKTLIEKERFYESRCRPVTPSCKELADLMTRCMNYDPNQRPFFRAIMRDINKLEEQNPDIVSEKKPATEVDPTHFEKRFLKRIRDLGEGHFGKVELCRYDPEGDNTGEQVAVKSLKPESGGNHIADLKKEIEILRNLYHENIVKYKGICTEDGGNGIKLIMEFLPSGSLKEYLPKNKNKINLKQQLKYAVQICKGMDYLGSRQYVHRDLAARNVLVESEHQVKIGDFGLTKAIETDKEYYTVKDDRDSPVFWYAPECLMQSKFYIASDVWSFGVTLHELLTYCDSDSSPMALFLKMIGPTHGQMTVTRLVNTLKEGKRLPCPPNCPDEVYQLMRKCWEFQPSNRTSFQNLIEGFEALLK
- Assay comment: JAK tyrosine kinase inhibitory activity in the presence of 1 mM ATP (ELISA), JAK1
- Format: biochemical
Structures can show the parent of a compound that is named as a salt.
IC50 under 600 nM gets label 1, anything at or over 600 nM gets label 0.

Solved entries:
>>> assigned_class("C[C@@H](Nc1cc(C(=O)N2CCC(O)CC2)nc(-c2cnn3ccsc23)n1)C(C)(C)C [Example 62, hydrochloride]")
"label 1"
>>> assigned_class("CC(=O)NC1CCN(C(=O)c2cc(N[C@@H](C)C3CC3)nc(-c3cnn4ccsc34)n2)CC1")
"label 1"
>>> assigned_class("COC(=O)NC1CCN(C(=O)c2cc(N[C@@H]3CCN(C(C)=O)C3)nc(-c3cnn4ccsc34)n2)CC1")
"label 0"
>>> assigned_class("CC(C)C(=O)NC1CCN(C(=O)c2cc(NC(C)(C)C)nc(-c3cnn4ccsc34)n2)CC1")
"label 0"
>>> assigned_class("COC(=O)NC1CCN(C(=O)c2cc(NC3CCN(S(C)(=O)=O)CC3)nc(-c3cnn4ccsc34)n2)CC1")
"label 0"

q: Determine if "C[C@@H](Nc1cc(C(=O)N2CCC(NC(=O)OCC(F)(F)F)CC2)nc(-c2cnn3ccsc23)n1)C1CC1" shows IC50 strictly lower than 600 nM.
a: label 1

q: Determine if "C[C@H](Nc1cc(C(=O)N2CCC(NC(=O)OCC(F)F)CC2)nc(-c2cnn3ccsc23)n1)C1CC1" shows IC50 strictly lower than 600 nM.
a: label 1

---

- Target: JAK1 (Homo sapiens)
- Construct: purchased Carna Biosciences, Inc
- Assay comment: JAK tyrosine kinase inhibitory activity in the presence of 1 mM ATP (ELISA), JAK1
- Format: biochemical
Where a name gives a salt, the structure may show the parent alone.
Assay endpoint: log10 of IC50 (log10 of the value in nM)
# values: log10(IC50), units nM

// known answers, use as guide
>>> observed_result("Cc1c(N[C@@H](C)C2CC2)nc(-c2cnn3ccsc23)nc1C(=O)N1CCC(NC(=O)C(F)F)CC1")
2.49
>>> observed_result("COC(=O)NC1CCN(C(=O)c2cc(N[C@@H](C)C(C)C)nc(-c3cnn4ccsc34)n2)CC1 [Example 25, hydrochloride]")
2.30

Your task in this section: give log10 of IC50 for each listed record.
1. COC(=O)NC1CCN(C(=O)c2cc(N[C@@H]3CCN(C(=O)C4CCC4)C3)nc(-c3cnn4ccsc34)n2)CC1
2. CC(C)(C)CNc1cc(C(=O)N2CCC(NC(=O)C3CC3)CC2)nc(-c2cnn3ccsc23)n1

a:
2.97
2.04

---

- Target: JAK2 (Homo sapiens, UniProt O60674)
- Construct: purchased Carna Biosciences, Inc
- Sequence (O60674 whole entry): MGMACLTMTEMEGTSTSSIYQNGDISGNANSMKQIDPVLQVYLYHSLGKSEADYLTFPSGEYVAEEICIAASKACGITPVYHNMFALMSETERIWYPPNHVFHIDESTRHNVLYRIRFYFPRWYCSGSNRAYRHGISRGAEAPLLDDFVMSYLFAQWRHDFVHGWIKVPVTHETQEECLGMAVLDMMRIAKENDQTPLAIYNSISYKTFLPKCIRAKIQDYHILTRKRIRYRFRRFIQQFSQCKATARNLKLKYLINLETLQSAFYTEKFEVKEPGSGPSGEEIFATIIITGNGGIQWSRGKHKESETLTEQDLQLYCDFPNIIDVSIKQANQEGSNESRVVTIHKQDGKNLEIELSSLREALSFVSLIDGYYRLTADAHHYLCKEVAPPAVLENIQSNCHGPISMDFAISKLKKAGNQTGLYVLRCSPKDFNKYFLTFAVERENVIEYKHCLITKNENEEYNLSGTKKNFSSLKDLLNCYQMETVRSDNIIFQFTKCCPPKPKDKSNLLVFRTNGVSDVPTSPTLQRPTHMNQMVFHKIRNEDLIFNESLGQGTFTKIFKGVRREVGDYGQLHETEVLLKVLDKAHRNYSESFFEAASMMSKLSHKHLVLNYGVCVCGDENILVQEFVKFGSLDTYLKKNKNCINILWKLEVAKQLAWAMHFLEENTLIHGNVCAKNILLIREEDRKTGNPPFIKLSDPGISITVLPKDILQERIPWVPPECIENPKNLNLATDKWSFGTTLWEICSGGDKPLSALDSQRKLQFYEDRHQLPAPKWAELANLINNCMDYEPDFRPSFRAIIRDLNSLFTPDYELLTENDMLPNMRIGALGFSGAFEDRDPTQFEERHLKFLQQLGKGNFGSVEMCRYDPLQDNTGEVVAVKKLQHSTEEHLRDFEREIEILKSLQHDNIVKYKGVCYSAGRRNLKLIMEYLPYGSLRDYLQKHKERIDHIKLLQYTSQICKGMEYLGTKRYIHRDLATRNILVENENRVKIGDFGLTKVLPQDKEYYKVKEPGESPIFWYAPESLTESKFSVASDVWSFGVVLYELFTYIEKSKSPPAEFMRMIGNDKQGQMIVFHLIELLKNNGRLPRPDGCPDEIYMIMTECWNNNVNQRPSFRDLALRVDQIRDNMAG
- Assay comment: JAK tyrosine kinase inhibitory activity in the presence of 1 mM ATP (ELISA), JAK2
- Format: biochemical
- Description: 1. Preparation of Test Compound The test compound was dissolved in dimethyl sulfoxide (DMSO) to 10 mM and further diluted with DMSO to the concentrations of 1000, 100, 10, 1, 0.1 and 0.01 μM, respectively. For JAK1, these solutions of the test compound at the six concentrations 10 mM, 1000 μM, 100 μM, 10 μM, 1 μM and 0.1 μM were used. […] The activity was determined by ELISA method. […] The absorbance at 450 nm was measured using a microplate reader (BIO-RAD). […]
Where a name gives a salt, the structure may show the parent alone.
Assay endpoint: IC50 (nM)
Numbers only, in nM.

// known answers, use as guide
>>> observed_result("COCCOC(=O)NC1CCN(C(=O)c2cc(NC(C)(C)C)nc(-c3cnn4ccsc34)n2)CC1")
1800
>>> observed_result("O=C(NC1CCN(C(=O)c2cc(NC3CC4CCC3C4)nc(-c3cnn4ccsc34)n2)CC1)C1CC1 (stereo not drawn)")
4400
>>> observed_result("C[C@H](Nc1cc(C(=O)N2CCC(NC(=O)c3ccncc3)CC2)nc(-c2cnn3ccsc23)n1)C1CC1")
2100
>>> observed_result("C[C@H](Nc1cc(C(=O)N2CCC(NS(=O)(=O)C3CC3)CC2)nc(-c2cnn3ccsc23)n1)C1CC1")
680

Your task in this section: give IC50 for each listed record.
1. CCC(CC)N(C)c1cc(C(=O)N2CCC(NC(=O)OC)CC2)nc(-c2cnn3ccsc23)n1
2. CCCOC(=O)NC1CCN(C(=O)c2cc(NC(C)(C)C)nc(-c3cnn4ccsc34)n2)CC1
3. COC(=O)NC1CCN(C(=O)c2cc(N[C@@H](C)C(C)C)nc(-c3cnn4ccsc34)n2)CC1 [Example 25, hydrochloride]
4. O=C(NC1CCN(C(=O)c2cc(OC3CCC3)nc(-c3cnn4ccsc34)n2)CC1)C1CC1
5. COC(=O)NC1CCN(C(=O)c2cc(N[C@H](CO)C(C)(C)C)nc(-c3cnn4ccsc34)n2)CC1

a:
[3500, 9700, 800, 5700, 7300]

Your task in this section: give IC50 for each listed record.
1. CCC(=O)NC1CCN(C(=O)c2cc(NCC(C)(C)OC)nc(-c3cnn4ccsc34)n2)CC1
2. COC(=O)NC1CCN(C(=O)c2cc(NC(C3CC3)C3CC3)nc(-c3cnn4ccsc34)n2)CC1
3. CC(C)(C)Nc1cc(C(=O)N2CCC(O)CC2)nc(-c2cnn3ccsc23)n1

a:
[4200, 770, 2900]

---

- Target: JAK1 (Homo sapiens)
- Construct: purchased Carna Biosciences, Inc
- Assay comment: JAK tyrosine kinase inhibitory activity in the presence of 1 mM ATP (ELISA), JAK1
- Format: biochemical
Where a name gives a salt, the structure may show the parent alone.
Assay endpoint: IC50
Please report the result as a number followed by the unit.

Your task in this section: give IC50 for each listed record.
1. COC(=O)NC1CCN(C(=O)c2cc(NCC3CCN(C(=O)OC)CC3)nc(-c3cnn4ccsc34)n2)CC1
2. C[C@H](Nc1cc(C(=O)N2CCC(NC(=O)C3CCCCC3)CC2)nc(-c2cnn3ccsc23)n1)C1CC1
3. O=C(NC1CCN(C(=O)c2cc(NC3CCNCC3)nc(-c3cnn4ccsc34)n2)CC1)C1CC1 [Example 181, dihydrochloride]
4. C[C@@H](Nc1cc(C(=O)N2CCC(NC(=O)OCC(F)(F)F)CC2)nc(-c2cnn3ccsc23)n1)C(C)(C)C
5. CCCC(=O)N1CC[C@@H](Nc2cc(C(=O)N3CCC(NC(=O)OC)CC3)nc(-c3cnn4ccsc34)n2)C1

a:
1. 690 nM
2. 230 nM
3. 860 nM
4. 200 nM
5. 410 nM

Your task in this section: give IC50 for each listed record.
1. CC(C)OC(=O)NC1CCN(C(=O)c2cc(NC3(C)COC3)nc(-c3cnn4ccsc34)n2)CC1
2. COC(=O)NC1CCN(C(=O)c2cc(NC3CCCC3)nc(-c3cnn4ccsc34)n2)CC1
3. CCC(CC)N(C)c1cc(C(=O)N2CCC(NC(=O)OC)CC2)nc(-c2cnn3ccsc23)n1
4. C[C@@H](Nc1cc(C(=O)N2CCC(NC(=O)c3ccccc3)CC2)nc(-c2cnn3ccsc23)n1)C(C)(C)C
5. CC(C)(C)Nc1cc(C(=O)N2CCC(O)CC2)nc(-c2cnn3ccsc23)n1

a:
43 nM
320 nM
350 nM
87 nM
400 nM

Your task in this section: give IC50 for each listed record.
1. COCC(=O)NC1CCN(C(=O)c2cc(N[C@H](C)C(C)(C)C)nc(-c3cnn4ccsc34)n2)CC1
2. COC(=O)NC1CCN(C(=O)c2cc(N[C@@H]3CCN(C(=O)C4CC4)C3)nc(-c3cnn4ccsc34)n2)CC1
3. N#CC1(Nc2cc(C(=O)N3CCC(O)CC3)nc(-c3cnn4ccsc34)n2)CC1 [Example 117, hydrochloride]
4. CCOC(=O)NC1CCN(C(=O)c2cc(N[C@@H]3CCN(C(=O)CC#N)C3)nc(-c3cnn4ccsc34)n2)CC1
5. CCC1CCCCN1c1cc(C(=O)N2CCC(NC(=O)C3CC3)CC2)nc(-c2cnn3ccsc23)n1 (stereo not drawn)

a:
40 nM
850 nM
1400 nM
70 nM
310 nM

---

Provide the reported log10 of IC50 of each item.
- Target: JAK1 (Homo sapiens, UniProt P23458)
- Construct: purchased Carna Biosciences, Inc
- Assay comment: JAK tyrosine kinase inhibitory activity in the presence of 1 mM ATP (ELISA), JAK1
- Format: biochemical
Where a name gives a salt, the structure may show the parent alone.
# values: log10(IC50), units nM

// known answers, use as guide
>>> observed_result("CC(C)OC(=O)NC1CCN(C(=O)c2cc(NC(C)(C)C)nc(-c3cnn4ccsc34)n2)CC1")
1.86
>>> observed_result("COC(=O)NC1CCN(C(=O)c2cc(NC(C)c3ccncc3)nc(-c3cnn4ccsc34)n2)CC1 (stereo not shown)")
3.04
>>> observed_result("C[C@H](Nc1cc(C(=O)N2CCC(NC(=O)OC(C)(C)CF)CC2)nc(-c2cnn3ccsc23)n1)C1CC1 [Example 21, hydrochloride]")
2.36
>>> observed_result("CCOC(=O)NC1CCN(C(=O)c2cc(N[C@H](C)C3CC3)nc(-c3cnn4ccsc34)n2)CC1 [Example 74, hydrochloride]")
1.98
>>> observed_result("COC(=O)NC1CCN(C(=O)c2cc(NC3(C#N)CC3)nc(-c3cnn4ccsc34)n2)CC1")
2.68

Your task in this section: give log10 of IC50 for each listed record.
1. CC(Oc1cc(C(=O)N2CCC(NC(=O)C3CC3)CC2)nc(-c2cnn3ccsc23)n1)C(C)(C)C (stereo not shown)
2. O=C(NC1CCN(C(=O)c2cc(NC3CCOCC3)nc(-c3cnn4ccsc34)n2)CC1)C1CC1

a:
1.82
2.51

Just for reference, patent US9999622B2 is where these values come from.
